# test.summary: chemical genetic growth profiling, strain panel (AID 1159580);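 also: tested at 20 µM; growth read once vehicle control cultures reached saturation at 30 °C; 1 = growth at the plate median or of vehicle wells; lower values mean less growth of the strain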
# experimental.conditions: S. cerevisiae deletion strains, growth OD, locus YMR078C, strain ctf18, hits give low values
In all, about 5,500 compounds went through this assay and about 2,000 (36%) were called active. Not shown: some 18% with an inconclusive outcome. The list shows a part of the results.
outcome.measure: normalized growth
Answer field: number only, no words.

{"compound": "COC(=O)C[C@H]1C2(C)CC34OC5(C)O[C@@]6([C@H](OC(C)=O)C(OC(C)=O)[C@]7(C)C(/C(=C(/O)C(C)C)C(=O)O[C@H]7c7ccoc7)[C@@]6(O5)[C@H](OC(C)=O)[C@@]3(O)C2OC(=O)C(C)C)[C@]14C (stereo not given in full)", "outcome.measure": "normalized growth", "numeric.value": 0.998}
{"compound": "COc1ccc(CN(CCN(C)C)c2ccccn2)cc1", "outcome.measure": "normalized growth", "numeric.value": 0.992}
{"compound": "COc1ccc2c(c1)OC1(O)COc3cc(OC)c(OC)cc3C1=C2 (stereo not given)", "outcome.measure": "normalized growth", "numeric.value": 0.98}
{"compound": "CC(C)NCC(O)COc1cccc2[nH]ccc12 (stereo not given)", "outcome.measure": "normalized growth", "numeric.value": 0.981}
{"compound": "COc1ccc(C(CN(C)C)C2(O)CCCCC2)cc1 (stereo not given)", "outcome.measure": "normalized growth", "numeric.value": 0.993}

// query normalized growth value for entry `NCCc1cnc[nH]1`
1.02

Query: normalized growth; subject: `COc1ccc2c(c1)OC/C(=C/c1ccc(OC)c(OC)c1)C2=O`
0.981

State the recorded normalized growth for this entry: O=C1CCC(N2C(=O)c3ccccc3C2=O)C(=O)N1 (stereo not given)
0.998

Could you share which normalized growth value was measured for `COc1cc(CNC(=O)CCCC/C=C/C(C)C)ccc1O` ?
1

Need normalized growth, item `Clc1ccc(C(c2ccc(Cl)cc2)C(Cl)(Cl)Cl)cc1`
0.991

Looking for the measured normalized growth of `CCCCCCCCC(=O)NCc1ccc(O)c(OC)c1` , can you help?
0.977

====

# test.summary: chemical genetic growth profiling, strain panel (AID 1159580);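 also: tested at 20 µM; growth read once vehicle control cultures reached saturation at 30 °C; 1 = growth at the plate median or of vehicle wells; lower values mean less growth of the strain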
# experimental.conditions: S. cerevisiae deletion strains, growth OD, locus YOR270C, strain vph1, hits give low values
The campaign covered roughly 5,500 compounds. About 2,000 (36%) were called active. Roughly 18% stayed inconclusive and do not appear here. The list shows a part of the results.
Listing: normalized growth of selected compounds
Form rule: numeric answer, no unit written next to it.

What value of normalized growth has been recorded for this entry: Cn1c(=O)c2c(ncn2CC(O)CO)n(C)c1=O (centres undefined)
0.982

Which normalized growth value belongs to COc1c(N2CCNC(C)C2)c(F)cc2c(=O)c(C(=O)O)cn(C3CC3)c12 (centres undefined) ?
0.896

Fill blank: measured normalized growth of the compound CC1COc2c(N3CCN(C)CC3)c(F)cc3c(=O)c(C(=O)O)cn1c23 (centres undefined) is ____.
0.965

Looking for the measured normalized growth of CNCCC(Oc1ccc(C(F)(F)F)cc1)c1ccccc1 (centres undefined) , can you help?
0.9

====

# test.summary: chemical genetic growth profiling, strain panel (AID 1159580);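 also: tested at 20 µM; growth read once vehicle control cultures reached saturation at 30 °C; 1 = growth at the plate median or of vehicle wells; lower values mean less growth of the strain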
# experimental.conditions: S. cerevisiae deletion strains, growth OD, locus YML032C, strain rad52
The whole screen tested about 5,500 compounds, of which about 2,000 (36%) were called active. Roughly 18% stayed inconclusive and do not appear here. Rule as the data show it: active = normalized growth mostly below about 0.91 (no sharp cut-off); inconclusive = no clear call, values can overlap the other calls; inactive = mostly above about 0.92. The list shows a part of the results.
Please state which outcome applies, choosing from active, inactive

{"molecule": "O=C1c2ccc(O)cc2O[C@H](c2cc(O)c(O)c(O)c2)[C@H]1O", "group.label": "inactive"}
{"molecule": "NCCCS(=O)(=O)O", "group.label": "inactive"}
{"molecule": "COc1cc2nc(N(C)CCCNC(=O)C3CCCO3)nc(N)c2cc1OC (centres undefined)", "group.label": "inactive"}
{"molecule": "NC(=O)c1ccc[n+]([C@@H]2O[C@H](COP(=O)([O-])OP(=O)(O)OC[C@H]3O[C@@H](n4cnc5c(N)ncnc54)[C@H](OP(=O)(O)O)[C@@H]3O)[C@@H](O)[C@H]2O)c1", "group.label": "inactive"}
{"molecule": "CC[C@@H](C(=O)C(C)[C@@H](O)[C@H](C)CCc1ccc(C)c(O)c1C(=O)O)C1OC(CC)(C2CC[C@](O)(CC)[C@H](C)O2)C[C@@H]1C (some centres undefined)", "group.label": "inactive"}

Identify the outcome logged in this assay for the molecule shown: `Oc1cc(O)c2c(c1)O[C@H](c1ccc(O)c(O)c1)[C@H](O)C2`
inactive

Per the assay record, what outcome was assigned to `O=C(O)CCCc1ccccc1` ?
inactive

In this assay, the call recorded for C[C@@H]1CC(Cl)CC[C@H]1C(=O)OC(C)(C)C (some centres undefined) was what?
inactive

Assay result, entry `COC(=O)c1cc(=O)c(O)c2c(O)c(O)ccc2c1` — outcome?
active

Name the outcome recorded for `CN(C)CCN(Cc1cccs1)c1ccccn1` in the assay.
inactive

Assay outcome for CCCCCCC(C)OC(=O)COc1cc(Cl)c(Cl)cc1Cl (centres undefined) : what was it?
inactive

Call for entry Clc1ccc(C(OCCN2CCCCC2)c2ccccc2)cc1 (centres undefined) :
inactive
